Data credit: patent US7989630B2

# targetOrTestSystem: UniProtKB P41145
# Sequence (P41145 whole entry): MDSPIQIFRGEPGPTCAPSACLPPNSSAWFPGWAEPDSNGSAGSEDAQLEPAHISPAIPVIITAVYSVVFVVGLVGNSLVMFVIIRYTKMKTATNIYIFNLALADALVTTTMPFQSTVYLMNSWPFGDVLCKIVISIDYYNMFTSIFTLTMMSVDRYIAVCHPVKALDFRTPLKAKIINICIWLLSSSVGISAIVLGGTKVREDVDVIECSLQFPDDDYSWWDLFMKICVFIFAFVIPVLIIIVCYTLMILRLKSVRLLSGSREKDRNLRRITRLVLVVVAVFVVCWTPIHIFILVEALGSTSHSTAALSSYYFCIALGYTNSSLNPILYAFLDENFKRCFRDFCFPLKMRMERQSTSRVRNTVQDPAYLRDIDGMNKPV
pKi: −log10 of the molar value.
valueType: pKi

> print(dat)
                                     smiles  targetortestsystem  reported
1  CNC(=O)C(CCN1CCC(O)(c2ccc(Cl)cc2)CC1)(c1ccccc1)c1ccccc1    UniProtKB P41145      7.14

====

# targetOrTestSystem: δ opiate receptor (Homo sapiens, UniProt P41143)
# Sequence (P41143 whole entry): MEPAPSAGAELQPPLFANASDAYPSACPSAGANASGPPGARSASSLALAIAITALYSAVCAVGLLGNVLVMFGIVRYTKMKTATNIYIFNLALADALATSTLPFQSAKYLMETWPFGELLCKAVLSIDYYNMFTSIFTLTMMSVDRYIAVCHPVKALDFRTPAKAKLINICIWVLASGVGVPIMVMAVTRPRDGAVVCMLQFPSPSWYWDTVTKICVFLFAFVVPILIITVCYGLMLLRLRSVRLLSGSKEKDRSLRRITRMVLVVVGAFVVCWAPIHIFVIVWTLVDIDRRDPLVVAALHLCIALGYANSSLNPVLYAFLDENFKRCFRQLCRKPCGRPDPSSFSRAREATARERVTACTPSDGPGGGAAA
valueType: Ki (nM)

> print(dat)
                                     smiles                        targetortestsystem  reported
1  CNC(=O)C(CCN1CCC(O)(c2ccc(Cl)cc2)CC1)(c1ccccc1)c1ccccc1  δ opiate receptor (Homo sapiens, UniProt P41143)       328

====

# targetOrTestSystem: μ opiate receptor (Homo sapiens, UniProt P35372)
# Sequence (P35372 whole entry): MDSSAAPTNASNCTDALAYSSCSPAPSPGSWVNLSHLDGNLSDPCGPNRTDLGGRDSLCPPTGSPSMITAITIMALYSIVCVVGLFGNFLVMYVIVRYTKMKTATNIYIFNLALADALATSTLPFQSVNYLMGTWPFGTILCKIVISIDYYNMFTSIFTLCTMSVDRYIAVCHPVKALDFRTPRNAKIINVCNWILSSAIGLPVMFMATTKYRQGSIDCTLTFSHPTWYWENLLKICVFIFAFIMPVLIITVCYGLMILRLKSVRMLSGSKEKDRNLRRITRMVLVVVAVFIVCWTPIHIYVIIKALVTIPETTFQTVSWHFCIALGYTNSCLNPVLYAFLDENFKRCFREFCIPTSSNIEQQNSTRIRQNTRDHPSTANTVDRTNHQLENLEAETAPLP
valueType: Ki (nM)

> print(dat)
                                   compound  reported
1  CNC(=O)C(CCN1CCC(O)(c2ccc(Cl)cc2)CC1)(c1ccccc1)c1ccccc1 [dLop]      0.56
